These entries and their values trace back to patent US5656440A.

molecular target: bovine ARβ3 receptor (Bos taurus); construct: to liberate the 1598-base pair fragment containing the coding region of the bovine β3 gene; expressed in transfected cells; assay: competitive binding of ligands against [^125 I]cyanopindolol on intact CHO cells, bovine receptor (clone 62-26); details: BovineRAβ3-CHO; 0.5 nM [^125 I]cyanopindolol, 30 minutes at 37° C.; read-out: Binding Ki
Sequence (P46626 whole entry, the tested form may be a part): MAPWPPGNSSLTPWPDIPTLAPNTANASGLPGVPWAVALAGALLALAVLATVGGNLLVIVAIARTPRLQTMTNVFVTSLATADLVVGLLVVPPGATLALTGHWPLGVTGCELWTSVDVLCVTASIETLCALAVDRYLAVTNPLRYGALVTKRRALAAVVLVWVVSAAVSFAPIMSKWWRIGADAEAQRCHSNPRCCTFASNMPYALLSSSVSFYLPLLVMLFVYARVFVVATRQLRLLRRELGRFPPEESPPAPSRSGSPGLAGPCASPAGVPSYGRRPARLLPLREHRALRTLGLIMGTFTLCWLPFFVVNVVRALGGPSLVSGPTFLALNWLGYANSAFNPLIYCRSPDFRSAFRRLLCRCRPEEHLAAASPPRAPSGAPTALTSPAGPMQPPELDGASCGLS
For each entry below, report its log10 of Ki value.
On a log10 scale: recorded Ki, unit nM.

Some molecules with known log10 of Ki results, for comparison:
Cc1ccc(Cl)c(OCC(O)CNC(C)(C)C)c1 (single isomer, unassigned; (-)) [(-) bupranolol, bupranolol] = 1.93
O=C(O)COc1ccc(OCCNCC(O)COc2ccccc2)cc1 (centres unmarked) = 1.44

Below are 3 molecules. Give each one its log10 of Ki.
1. CNC[C@H](O)c1ccc(O)c(O)c1 [(- ) epinephrine, (-)-epinephrine]
2. CC(C)(C)NCC(O)COc1cccc2[nH]c(=O)[nH]c12 (centres unmarked) [CGP 12177A]
3. CC(C)(Cc1c[nH]c2ccccc12)NCC(O)COc1ccccc1C#N (centres unmarked)

Reply text:
[4.05, 2.34, 1.86]
